PROCEDURE TEXT: xanthine oxidase inhibitors, late-stage follow-up, NOX1 inhibitor project, biochemical, IC50, set 2 (AID 435009)
PARTICULARS: Xanthine oxidase enzyme assay, ROS/superoxide detection
Activity calls are given as the source filed them. No rule for the calls is given here.
Recorded IC50 for the following molecules

Example molecules with recorded IC50:
STRUCTURE	IC50
CSc1ccc(NC(=O)Nc2ccc(N(C)C)cc2)cc1	1200 nM (active)
Cc1cc(Cl)ccc1NC(=S)NNC(=S)Nc1ccc(F)cc1	3300 nM (active)
Fc1ccc(NC(=S)NNC(=S)Nc2ccccc2)cc1	500 nM (active)

**Q:** Please indicate IC50 recorded for COc1cc(-c2nc(-c3ccccc3)c(-c3ccccc3)[nH]2)ccc1O
**A:** 10 nM (active)

**Q:** Please indicate IC50 recorded for Oc1c(Br)cc(/C=N/Nc2c(Cl)cncc2Cl)cc1Br
**A:** > 5000 nM (inactive)

**Q:** Please indicate IC50 recorded for CN(C)c1ccc(NC(=O)Nc2ccc(OCc3ccccc3)cc2)cc1
**A:** 1300 nM (active)

**Q:** Please indicate IC50 recorded for COc1cc(-c2nc(-c3ccccc3)c(-c3ccccc3)[nH]2)cc(OC)c1O
**A:** 900 nM (active)
